Test: yeast display, Sf9 membrane polyspecificity reagent, FACS + sequencing; frameworks hold sequencing errors

entry sequence	polyreactivity (PSR sort gate)
QVQLVETGGGLVQAGGSLRLSCAASGFTFKFNTMGWYRQAPGKERELVAAISWRGGDTSYADSVKGRFTISRDNAKNTVYLQMNSLKPEDTAVYYCAASPRYPYWYDYWGQGTQVTVSS	low polyreactivity
QGQLVESGGGLVQAGGSLRLSCAASGRIFRANAMGWYRQAPGKERELVAAIDASGGSTYYADSVKGRFTISRDNAKNTVYLQMNSLKPEDTAVYDCAADRGFLRSFAPGNMDYWGQGTQVTVSS	low polyreactivity

---

Assay: yeast display, Sf9 membrane polyspecificity reagent, FACS + sequencing; frameworks hold sequencing errors

entry sequence	polyreactivity (PSR sort gate)
QVQLVESGGGLVQAGGSLRLSCAASGRIFSFNAMGWYRQAPGKERELVAAISWSTGSTFYADSVKGRFTISRDNAKNTVYLQMNSLKPEDTAVYYCAREYYYRRGFFLRGYWGQGTQVTVSS	high polyreactivity
QVQLVESGGGLVQAGGSLRLSCAASGSTFYKYAMGWYRQAPGKERELVAAISTRGGSTYYADSVKWRFTISRDNAKNTVYLQMNSLKPEDTAVFYCAADGRGGHDVYWGQGSQVTVSS	high polyreactivity
QVQLVESGGGLVQAGGSLRLSCAASGSTFYVYGMGWYRQAPGKERELVATISSSGAITYYADSVKGRFTISRDNAKNTVYLQMNSLKPEDTAVYYCARTGSLLSQVWYTYWGQGTQVTVSS	low polyreactivity
QVQHVESGGGLVQAGGSLRLSCAASGSTFDYYAMGWYRQAPGKERELVAAISDSARSTFYADSVKGRFTISRDNAKNTVYLQMNSLKPEDTAVYYCAAYFWSYWRSEGYSWGQGTKVTVSS	high polyreactivity
QVQLVESGRGLVQAGGSLRLSCAASGSIFYYLAKGWYRQAPGKERELVAVIDFSGASTSYADSVKGRFTISRDNAKNTVYLQMNSLKPEDTAVYYCAADRFRRKVRVDYWGQGTQVTVSS	low polyreactivity
QDQLVESGAGLVQAGGSLRLSCAASGSTFGIYAMGWSRQAPGKEREFVAAISRSGSSTYYADSVKGRFTISRDNAKNTVYLQMNSLKPEDTAVYYCAAVVRYSQAGYYYWGQGTHVTVSS	high polyreactivity
QVQLVESGGGLVQAGGSLRLSCAASGLTFPGYAMGWYRQAPVKERELVAAISYSSGSTYYADSVKGRFTISRDNAKNTVYLQMNILKQEDTEVYYCNRVYRFRGITELDYWGQGTQVTVSS	high polyreactivity
QVQLVESGGGLVQAGGSLRLICAASGYTFGHYVMGWYRQAPGKERELGAAISRGGGSTSYADSVKGRFTISRDNAKNTVYLQMNSLKPEDTAVYYCAKKSTYFKWSRMYWGQGTQVTVSS	high polyreactivity
QVHPVESGGGLVQAGGSLRLSCAASGGILYRNAMGWYRQAPGKERELVAAISSRGGSTYYADSVKGRFTISRDNAKNTVYLQMNSLKPEDTAVYYCAVVNRSAQSLKYEYWGQGTQVTVSS	high polyreactivity
QVQLVESGGGLVQAGGSLRLSSAASGLTLRTYAMGWYRQETGQERELVAAITSGGGSTYYADSVKGRFTISRDNSKNTVYLQLNSLNQEDTAFYYCAAKPVVRYVSFGYDYWGQGTDVTVSS	high polyreactivity
QVQLVESGGGLVQAGGSLRLSCAASGFTFALYAMGWYRQAPGKERELVAAITSGGSTNYADSVKGRFTISRDNAKNTVYLLMNSLKPEDTAVYYCAAVPYYRYYSLKGRNNYNYWGQGTQVTVSS	high polyreactivity
QVQLVESGGGLVQAGGSLRLSCAASGSTFQGYAMGWYRQAPGKERELVAAINYSGGSTYYADSVKGRFTISRDNAKNTVYFQMNSLKPEDTAVYYCAVKLRSRAVTSYGYWGQGTQVTVSS	high polyreactivity
QVQLVESGGGLVQAGGSLRLSCAASGRTFVCNAMGWYRQAPGKERELVAAISSSGTATYYADSVKGRFTISRDNAKNTVYLQMNSLKPEDTAVYYCAKDLLYQPTIRDYWGQGTQVTVSS	low polyreactivity
QVQLVESGGGLVQAGGSLRLSCAASGSIFGRYAMGWYRQAPGKERELVAAISANGGSTYYADSVKGRFTISRDNAKNTVYLQMNSLKPEDTAVYYCAAGSTRGYKLGYWGQGTQVTVSS	high polyreactivity
QVQLVESGGGLVQAGGSLRLSCAASGRTFRYYAMGWYRQAPGKERELVAAITSGGSTYYADSVKGRFTISRDNAKNTVYLLMNSLKPEDTAAYYCAAEYVYPYWNGFDYWGQGTQVTVSS	low polyreactivity
QVQLLDSGGGLVQAGGSLRLSCAASGSIFGRNAMVWYRQAPGKEREFVATITSRGGRTYYADSVKGRFTISRDNAKNTVYLQMNSLKPEDTAVYYCAADTYISTLKKYRLGDYWGQGTQVTVSS	low polyreactivity
QVQLVESGGGLVQAGGSLRLSCAASGSTFQVYTKGWYIQAPGKEREFVASISWSGSSTYYADSVKGRFTISRDNAKNTVYLQMNSLKPEDTAVYYCAARARIKYLADPGYYWGQGTQVTVSS	high polyreactivity
QVQLVESAGGLVQAGGSLRLSCAASGSTFYTYTMGWYRQAPGKERELVAAISSSGGDTYYADSVKGRFTISRDNAKNTVYLQMNSLKPEDTAVYYCAAAGPYGAVWRNDYWGQGTQVTVSS	low polyreactivity
QVQLVESGGGLVQAGGSLRLSCAASGRTFVVNYMGWYRQAPGKERELVATINVSGGSTSYADSVKGRFTISRDNAKNTVYLQMNSLKPEDTAVYYCNVDTYVEYPHDYWGQGTQVTVSS	low polyreactivity
QVQLVESGGGLVQAGGSLRLSCAASGITFVYYDMGWYRQAPGKERELVAAISSDGSTYYADSVKGRFTISRDNAKNTVYLQMNSLKPEDSAVYYCAADYFNYRGYTYLGDYWGQCTQVTVSS	low polyreactivity
QVQLVESGGGLVQAGGSLRLSCAASGRILSLYAMGWNRQAPGKERELVASINWSDGSTYYADSVKGRFTISRDNAKNTVYLQMNSLKPEDTAVYYCTVDVRSYVAGYDYWGQGTQVTVSS	low polyreactivity
